Recorded values, source ChEMBL document CHEMBL1201862.

# Test system: CAKI-1
# protocol summary: NCI tumour cell line growth inhibition, 48 h
Active and inactive are the calls of the source. No stated cut-off is given here; in the data, active = GI50 up to about 1.1 µM and inactive = higher.
Choose the fitting class; nothing outside y for active, n for inactive is accepted.

Some solved entries appear below for comparison.
CC(C)(C)C1CCC(=O)C(C(O)CC2CC(=O)N(c3ccccc3)C(=O)C2)C1 (centres undefined) ... n
CCN(CC)c1ccc(NC(=S)NN(C)C)cc1 ... n
CN(C)CCNC(=O)c1cnn(C)c1[N+](=O)[O-] ... n
O=[N+]([O-])c1cccc(/N=N/c2c(O)ccc3ccccc23)c1 ... n
C/C(=N\NC(=S)N1CCN(c2ccccn2)CC1)c1cccc2cccnc12 ... n
COC(=O)c1cccc(N[C@@H]2c3cc4c(cc3C(c3cc(OC)c(O)c(OC)c3)[C@H]3C(=O)OCC32)OCO4)c1 (some centres undefined) ... y
O=c1[nH]nc(-c2ccccc2)n1-n1cccc1 ... n
C=CCCCC1CCCNC1=O (centres undefined) ... n

Ask | // param item: CC(=O)OC1CC2C(C)(C)C(=O)C=C[C@]2(C)C2CCC3(C)C(c4ccoc4)C(=O)[C@H]4O[C@]43[C@]12C (some centres undefined) ; yields the recorded call
Reply | n

Ask | Dear all, I need the recorded test outcome for CSc1nc2c(c(N3CCOCC3)n1)C(O)n1c(nc3ccccc31)S2 (centres undefined) , thank you.
Reply | n

Ask | Just curious, what result did Cn1c(=O)nc2n(-c3ccc(Cl)cc3)c3ccc(Cl)cc3nc-2c1=O get here?
Reply | n

Ask | Record lookup: outcome of this test for N#CC(C#N)=C1CCCS(=O)(=O)c2ccccc21 ?
Reply | n

Ask | // return assay outcome for COc1ccc2c(c1OC)C[C@@H]1c3c(cc4c(c3-2)OCO4)CCN1C
Reply | n

====

# Test system: SNB-75
# protocol summary: NCI tumour cell line growth inhibition, 48 h
The source made the active and inactive calls. Rule as the data show it: active = GI50 up to about 1.1 µM and inactive = higher.
reported metric: GI50

Ask | Quick one: GI50 for C=CCNC1=C2C[C@@H](C)C[C@@H](OC)[C@@H](OC(=O)CCCN)[C@H](C)/C=C(\C)[C@@H](OC(N)=O)[C@H](OC)/C=C\C=C(/C)C(=O)NC(=CC1=O)C2=O ?
Reply | 10.4 µM (inactive)

====

# Test system: HOP-92
# protocol summary: NCI tumour cell line growth inhibition, 48 h
Calls of active or inactive are those of the source. Cut-off read from the data, not from the text of the source: active = GI50 up to about 1.1 µM and inactive = higher.
Classes to choose from: y = active, n = inactive

Cc1ccc([S+]([O-])CC(CF)OCn2cc(C)c(=O)[nH]c2=O)cc1 (stereo unspecified) ... n
Cc1ccccc1S(=O)(=O)Nn1cnc2ccc(S(=O)(=O)Nc3ccc(Cl)cc3)cc2c1=O ... n
C/C(=N\O)c1ccc(OCc2cc(C(F)(F)F)cc(C(F)(F)F)c2)cc1 ... n
O=C(c1cccs1)N(C(=S)N1CCN(c2ccccn2)CC1)C1CCCCC1 ... n
C=C1C(C)C2C(Cc3ccccc3)NC(=O)C23C(OC(C)=O)C=CC(C)(O)C(=O)C(C)C/C=C/C3C1O (stereo unspecified) ... y
Cn1c(=O)oc2nc(-c3ccccc3)cc(C(F)(F)F)c21 ... n

Ask | Name the outcome recorded for CCCCCCCC(CC(=O)NC(CO)C(=O)NC(CO)CC(C)C)OC(=O)CC(CCCCCCC)OC(=O)CC(CCCCCCC)OC1OC(C)C(O)C(OC2OC(C)C(O)C(O)C2O)C1O (stereo unspecified) in the assay.
Reply | n

Ask | What was the test verdict on COS(=O)(=O)OCCC(NC(=O)OCc1ccccc1)C(=O)OCc1ccccc1 (stereo unspecified) ?
Reply | n

Ask | // return assay outcome for Cc1cc(=O)oc2c(C)c(O)ccc12
Reply | n

Ask | Recorded call for COC(=O)c1ccccc1/C=C1/Cc2ccccc2C1=O ?
Reply | n

Ask | Test call, this molecule: CCCCCCCCCCCCCC/C(C(=O)O)=C(\C)C(=O)O
Reply | n

Ask | How did this test come out for CC(=O)NS(=O)(=O)c1ccc(NCc2cccc3c(=O)c4ccc(Cl)cc4oc23)cc1 ?
Reply | n

Ask | // outcome(item) with item = O=C(NC1CCN(Cc2ccccc2)CC1)c1cccc(I)c1
Reply | n

Ask | Recorded test outcome, item NC(=O)C(Nc1ccc(Cl)cc1)c1cc2cc(Br)ccc2nc1Cl (stereo unspecified)
Reply | n

Ask | Which outcome was entered for the molecule NCCCC(N)C(=O)O (stereo unspecified) in this test?
Reply | n

Ask | Could you kindly confirm the outcome this assay logged for COc1cc(/C=C\c2nnc(/C=C\c3ccc(O)c(OC)c3)s2)ccc1O ?
Reply | n

Ask | Which result was noted for this molecule in the test: Cc1cc(O)nc(CNC(=O)Cc2ccccc2)n1
Reply | n

Ask | Please let me know the test result on file for O=C1NC(=O)/C(=C/c2ccc(S(=O)(=O)N/N=C/c3ccc(Cl)cc3)cc2)N1 .
Reply | n

Ask | Any idea what this test logged for Cc1cc(NS(=O)(=O)c2ccc(NC(NC(=O)OC(C)C)(C(F)(F)F)C(F)(F)F)cc2)nc(C)n1 ?
Reply | n

Ask | Assay result, entry O=C(Nc1ccccc1)c1cc(S(=O)(=O)N2CCNC2=O)c(S)cc1Cl — outcome?
Reply | n

Ask | Tell me the assay call for CCOP1(=O)C=CC(Cl)=C(C)C1 (stereo unspecified) please.
Reply | n
